# Test system: broad leaf weeds (Lindernia pyxidaria and Monochoria vaginalis)
# Experimental Protocol: Test Example 1: herbicidal effect test by treatment of rice paddy soil (immediately after seeding)
# Type: in vivo
# Condition Details: Monochoria vaginalis, 120 g/10a active ingredient, dry weight vs untreated area, 14 days after treatment
true means recorded Herbicidal rate (%) Monochoria vaginalis is 90% or above; false means it is below 90%.

Compound | Label
Cc1c(Cc2cc(F)ccc2NS(=O)(=O)C(F)(F)F)c(=O)on1Cc1ccccc1 | false
Cc1c(Cc2ccccc2NS(=O)(=O)C(F)(F)F)c(=O)on1C(C)c1ccc(OC(F)(F)F)cc1 (stereo not drawn) | false
COc1ccc(Cn2oc(=O)c(Cc3ccccc3N(S(=O)(=O)C(F)(F)F)S(=O)(=O)C(F)(F)F)c2C)cc1 | true
Cc1c(Cc2ccccc2N(C(=O)OCC(C)C)S(=O)(=O)C(F)(F)F)c(=O)on1Cc1ccccc1 | true
Cc1c(Cc2ccc(Cl)cc2NS(=O)(=O)C(F)(F)F)c(=O)on1C(C)C | false
Cc1c(Cc2ccccc2NS(=O)(=O)C(F)(F)F)c(=O)on1CCOc1ccccc1 | false
COCCn1oc(=O)c(Cc2ccccc2N(S(=O)(=O)C(F)(F)F)S(=O)(=O)C(F)(F)F)c1C | false
Cc1c(Cc2ccccc2NS(=O)(=O)C(F)(F)F)c(=O)on1Cc1ccc(F)cc1F | true

----------
# Test system: broad leaf weeds (Lindernia pyxidaria and Monochoria vaginalis)
# Experimental Protocol: Test Example 2: herbicidal effect test by treatment during growing period in paddy rice cultivation (seven days after seeding)
# Assay type: in vivo
# Condition Details: 336 h, Lindernia pyxidaria, 120 g/10a active ingredient, assessed 14 days after treatment, dry weight vs untreated area, read-out: herbicidal rate (%) Lindernia pyxidaria

Molecule | Unit String | pest or weed control at 1200 g/ha
Cc1c(Cc2ccccc2N(S(=O)(=O)C(F)(F)F)S(=O)(=O)C(F)(F)F)c(=O)on1C(C)(C)C | % | 90
COCC(C)n1oc(=O)c(Cc2ccccc2NS(=O)(=O)C(F)(F)F)c1C (stereo not drawn) | % | 90
CCC(C)n1oc(=O)c(Cc2ccccc2NS(=O)(=O)C(F)(F)F)c1C (stereo not drawn) | % | 60
CCC(C)n1oc(=O)c(Cc2ccccc2N(S(=O)(=O)C(F)(F)F)S(=O)(=O)C(F)(F)F)c1C (stereo not drawn) | % | 90
Cc1c(Cc2ccccc2N(S(=O)(=O)C(F)(F)F)S(=O)(=O)C(F)(F)F)c(=O)on1CC(C)C | % | 100
CCC(C)n1oc(=O)c(Cc2ccccc2N(C(=O)OC)S(=O)(=O)C(F)(F)F)c1C (stereo not drawn) | % | 90
CC(=O)N(c1ccccc1Cc1c(C)n(CC(C)C)oc1=O)S(=O)(=O)C(F)(F)F | % | 100
COCC(C)n1oc(=O)c(Cc2ccccc2N(S(=O)(=O)C(F)(F)F)S(=O)(=O)C(F)(F)F)c1C (stereo not drawn) | % | 70
Cc1c(Cc2ccccc2NS(=O)(=O)C(F)(F)F)c(=O)on1CC(C)C | % | 90

----------
Each entry below carries its reported Herbicidal rate (%) Scirpus juncoides.
# Test system: Scirpus juncoides
# Experimental Protocol: Test Example 2: herbicidal effect test by treatment during growing period in paddy rice cultivation (seven days after seeding)
# Assay type: in vivo
# Condition Details: 120 g/10a active ingredient, assessed 14 days after treatment, dry weight vs untreated area
Quantity Measured: Herbicidal rate (%) Scirpus juncoides

Compound | Quantity Measured | Unit String | Observed Measurement
Cc1c(Cc2ccccc2N(S(=O)(=O)C(F)(F)F)S(=O)(=O)C(F)(F)F)c(=O)on1CC1CC1 | Herbicidal rate (%) Scirpus juncoides | % | 90
COC(=O)N(c1ccccc1Cc1c(C)n(C(C)(C)C)oc1=O)S(=O)(=O)C(F)(F)F | Herbicidal rate (%) Scirpus juncoides | % | 90
Cc1c(Cc2ccccc2N(C(=O)OC(C)C)S(=O)(=O)C(F)(F)F)c(=O)on1C(C)c1ccccc1 (stereo not shown) | Herbicidal rate (%) Scirpus juncoides | % | 90
CCCCCC(c1ccccc1)n1oc(=O)c(Cc2ccccc2NS(=O)(=O)C(F)(F)F)c1C (stereo not shown) | Herbicidal rate (%) Scirpus juncoides | % | 90
Cc1c(Cc2cc(Cl)ccc2NS(=O)(=O)C(F)(F)F)c(=O)on1C(C)C | Herbicidal rate (%) Scirpus juncoides | % | 60
Cc1c(Cc2ccccc2N(S(=O)(=O)C(F)(F)F)S(=O)(=O)C(F)(F)F)c(=O)on1C(C)c1ccc(Cl)cc1 (stereo not shown) | Herbicidal rate (%) Scirpus juncoides | % | 90
Cc1c(Cc2c(Cl)cccc2NS(=O)(=O)C(F)(F)F)c(=O)on1C(C)C | Herbicidal rate (%) Scirpus juncoides | % | 60

----------
# System: Chenopodium album
# Experimental Protocol: Test Example 3: herbicidal effect test by treatment of dry field farming soil (one day after seeding)
# Format: in vivo
# Condition Details: 120 g/10a active ingredient, evaluated 14 days after treatment
herbicidal rate, Chenopodium album values for the compounds below.

Compound | Assayed System | Unit String | herbicidal rate, Chenopodium album
COC(=O)N(c1ccccc1Cc1c(C)n(Cc2ccc(F)cc2)oc1=O)S(=O)(=O)C(F)(F)F [Compound 1-597] | Chenopodium album | % | 0
CCC(C)n1oc(=O)c(Cc2ccccc2N(C(C)=O)S(=O)(=O)C(F)(F)F)c1C (stereo not shown) [Compound 1-294] | Chenopodium album | % | 90
CC(C)n1oc(=O)c(Cc2ccccc2NS(=O)(=O)C(F)(F)F)c1C1CC1 [Compound 1-83] | Chenopodium album | % | 40
CCC(C)n1oc(=O)c(Cc2ccccc2N(C(=O)C2CCCO2)S(=O)(=O)C(F)(F)F)c1C (stereo not shown) [Compound 1-522] | Chenopodium album | % | 90
Cc1c(Cc2ccccc2N(C(=O)C(C)C)S(=O)(=O)C(F)(F)F)c(=O)on1CC(C)(C)C [Compound 1-333] | Chenopodium album | % | 90
COCC(C)n1oc(=O)c(Cc2ccccc2N(C(=O)c2ccccc2)S(=O)(=O)C(F)(F)F)c1C (stereo not shown) [Compound 1-479] | Chenopodium album | % | 90
CCC(=O)N(c1ccccc1Cc1c(C)n(C(C)c2ccccc2)oc1=O)S(=O)(=O)C(F)(F)F (stereo not shown) [Compound 1-321] | Chenopodium album | % | 90

----------
Collected melting point values appear next to each entry.
Quantity Measured: melting point

Compound | Observed Measurement
CCC(C)n1oc(=O)c(Cc2ccccc2N(C(=O)OC)S(=O)(=O)C(F)(F)F)c1C (stereo not shown) | 75 to 80 °C
Cc1c(Cc2ccccc2N(S(=O)(=O)C(F)(F)F)S(=O)(=O)C(F)(F)F)c(=O)on1CC(C)C | 120 to 122 °C
COCC(C)n1oc(=O)c(Cc2ccccc2N(S(=O)(=O)C(F)(F)F)S(=O)(=O)C(F)(F)F)c1C (stereo not shown) | 116 to 118 °C
COCC(C)n1oc(=O)c(Cc2ccccc2NS(=O)(=O)C(F)(F)F)c1C (stereo not shown) | 107 to 109 °C

----------
Measured herbicidal rate, Chenopodium album values are reported for all entries that follow.
# Test system: Chenopodium album
# Experimental Protocol: Test Example 3: herbicidal effect test by treatment of dry field farming soil (one day after seeding)
# Type: in vivo
# Condition Details: 120 g/10a active ingredient, evaluated 14 days after treatment

Molecule | herbicidal rate, Chenopodium album (%)
Cc1c(Cc2ccccc2N(S(=O)(=O)C(F)(F)F)S(=O)(=O)C(F)(F)F)c(=O)on1C1CCCCC1 [Compound 1-990] | 50
CCC(C)n1oc(=O)c(Cc2ccccc2N(C(=O)C2CC2)S(=O)(=O)C(F)(F)F)c1C (stereo not drawn) [Compound 1-404] | 90
CCCC(CC)n1oc(=O)c(Cc2ccccc2N(S(=O)(=O)C(F)(F)F)S(=O)(=O)C(F)(F)F)c1C (stereo not drawn) [Compound 1-971] | 60
CCC(C)n1oc(=O)c(Cc2ccccc2N(C(=O)c2ccc(Cl)cc2)S(=O)(=O)C(F)(F)F)c1C (stereo not drawn) [Compound 1-484] | 90
CCCC(C)n1oc(=O)c(Cc2ccccc2N(C(=O)CC(C)C)S(=O)(=O)C(F)(F)F)c1C (stereo not drawn) [Compound 1-356] | 60
Cc1c(Cc2ccccc2NS(=O)(=O)C(F)(F)F)c(=O)on1C(C)C1CC1 (stereo not drawn) [Compound 1-144] | 0
CCCC(C)n1oc(=O)c(Cc2ccccc2N(C(=O)C(C)C)S(=O)(=O)C(F)(F)F)c1C (stereo not drawn) [Compound 1-334] | 40
Cc1c(Cc2ccccc2NS(=O)(=O)C(F)(F)F)c(=O)on1C1CCc2ccccc21 (stereo not drawn) [Compound 1-222] | 100
Cc1c(Cc2ccccc2N(C(=O)C2CCCCC2)S(=O)(=O)C(F)(F)F)c(=O)on1C(C)(C)C [Compound 1-431] | 90
Cc1c(Cc2ccccc2N(C(=O)Oc2ccccc2)S(=O)(=O)C(F)(F)F)c(=O)on1C(C)c1ccccc1 (stereo not drawn) [Compound 1-766] | 90
CCC(=O)N(c1ccccc1Cc1c(C)n(C(C)CC)oc1=O)S(=O)(=O)C(F)(F)F (stereo not drawn) [Compound 1-316] | 90
Cc1c(Cc2cc(F)ccc2N(S(=O)(=O)C(F)(F)F)S(=O)(=O)C(F)(F)F)c(=O)on1CC(C)C [Compound 1-29] | 40
CCC(C)Cn1oc(=O)c(Cc2ccccc2N(C(=O)OCC(C)C)S(=O)(=O)C(F)(F)F)c1C (stereo not drawn) [Compound 1-674] | 40
CSCCn1oc(=O)c(Cc2ccccc2N(C(C)=O)S(=O)(=O)C(F)(F)F)c1C [Compound 1-305] | 90
CC(=O)N(c1ccccc1Cc1c(C)n(C(C)c2ccccc2)oc1=O)S(=O)(=O)C(F)(F)F (stereo not drawn) [Compound 1-310] | 90
